Test system: TZM
Protocol Summary: Cytotoxicity against human TZM-bl cells assessed as reduction in cell viability measured after 3 days by XTT assay
Type: functional
Experimental Setup: 72 h, time 3 day
CC50 vs 100 µM: less than gives Yes; not less than gives No.

The following compounds have reported results that may help.
> print(dat)
                                   compound  category.label
1  Cc1sc(C(CO)NC(=O)c2[nH]c(-c3ccc4c(c3)OCO4)cc2CN)nc1S (centres undefined)              No
2  Cc1nc([C@@H](CN)NC(=O)c2ccc(-c3ccc(F)c(F)c3)[nH]2)sc1CO             Yes
3  NC[C@H](NC(=O)c1ccc(-c2ccc(C(F)(F)F)cn2)[nH]1)c1nc(CO)cs1              No

In plain terms, does Cc1nc(C(CNC2CCC2)NC(=O)c2ccc(-c3ccc(Cl)cc3)[nH]2)sc1CO (single isomer, unassigned) come in under 100 µM for CC50? Yes

In plain terms, does NCc1cc(-c2ccc3c(c2)OCO3)[nH]c1C(=O)NC(CO)c1nc(S)cs1 (centres undefined) come in under 100 µM for CC50? No

In plain terms, does `NC[C@@H](NC(=O)c1ccc(-c2ccc(Cl)c(F)c2)[nH]1)c1ncc(CO)s1` come in under 100 µM for CC50? Yes

In plain terms, does `CNCc1cc(-c2ccc3c(c2)OCO3)[nH]c1C(=O)NCc1nc(S)c(CO)s1` come in under 100 µM for CC50? Yes

In plain terms, does `NC[C@H](NC(=O)c1ccc(-c2cc(F)c(Cl)c(F)c2)[nH]1)c1ncc(CO)s1` come in under 100 µM for CC50? Yes

In plain terms, does `NC[C@H](NC(=O)c1ccc(-c2ccc(C(F)(F)F)cc2)[nH]1)c1nc(CO)cs1` come in under 100 µM for CC50? Yes

----------
System: Human immunodeficiency virus type 1 reverse transcriptase (Human immunodeficiency virus 1, UniProt Q72547)
Protocol Summary: Inhibition of recombinant HIV-1 reverse transcriptase incubated for 2 hrs by colorimetric assay
Assay Readout: pIC50
API: returns pIC50 as number; meaning -log10 of concentration in mol/L.

Worked examples follow.
> print(dat)
                                   compound  experimental.value
1  Cc1sc(C(CO)NC(=O)c2[nH]c(-c3ccc4c(c3)OCO4)cc2CN)nc1S (stereo not given)                4.51
2  Cc1nc(C(CNC2CCC2)NC(=O)c2ccc(-c3ccc(Cl)cc3)[nH]2)sc1CO (single isomer, unassigned)                4.36
3  NC[C@@H](NC(=O)c1ccc(-c2ccc(Cl)c(F)c2)[nH]1)c1ncc(CO)s1                4.86
4  Cc1cc(-c2ccc(C(F)(F)F)cn2)[nH]c1C(=O)N[C@H](CN)c1nc(CO)cs1                5.30

Give reported pIC50 value for `Cc1nc([C@H](CN)NC(=O)c2ccc(-c3ccc(Cl)c(F)c3)[nH]2)sc1CO` 5.08

----------
# log10 IC50 listing for each entry below
System: Human immunodeficiency virus type 1 reverse transcriptase (Human immunodeficiency virus 1, UniProt Q72547)
Protocol Summary: Inhibition of recombinant HIV-1 reverse transcriptase incubated for 2 hrs by colorimetric assay
Could you please treat all values as log10 of IC50 in µM?

Worked examples follow.
> print(dat)
                                   compound  experimental.value
1  NC[C@H](NC(=O)c1ccc(-c2ccc(C(F)(F)F)cn2)[nH]1)c1nc(CO)cs1                0.45
2  NCc1cc(-c2ccc3c(c2)OCO3)[nH]c1C(=O)NC(CO)c1nc(S)cs1 (stereo unspecified)                1.60
3  NC[C@H](NC(=O)c1ccc(-c2ccc(C(F)(F)F)cc2)[nH]1)c1nc(CO)cs1                0.18
4  Cc1ccc(-c2ccc(C(=O)N[C@H](CN)c3ncc(CO)s3)[nH]2)cc1F                0.86

Next item in the queue.
Give reported log10 IC50 value for `NC[C@H](NC(=O)c1ccc(-c2cc(F)c(Cl)c(F)c2)[nH]1)c1ncc(CO)s1` 0.92
